Experiment: Lapatinib pharmacokinetics and uptake in rat brain tissue (BT)
Assay type: in vivo, rats
Conditions: male, Wistar, rat, brain, oral, lapatinib 100 mg/kg + elacridar, 4 h; read-out: Clapatinib in BT, S
Reported Property: concentration at 4 h (ng/mL)
Number only, in ng/mL; omit the unit.

### Prompt Find the recorded concentration at 4 h belonging to CS(=O)(=O)CCNCc1ccc(-c2ccc3ncnc(Nc4ccc(OCc5cccc(F)c5)c(Cl)c4)c3c2)o1 [lapatinib] and report it.
### Response 97.6

----------
Assay: Lapatinib pharmacokinetics and uptake in rat brain tissue (BT)
Format: in vivo, rats
Conditions: male, Wistar, rat, brain, oral, lapatinib 100 mg/kg + elacridar, 4 h; read-out: Clapatinib in BT, single rat
Reported Property: concentration at 4 h
Record the result as a number with its unit.

### Prompt Find the recorded concentration at 4 h belonging to `CS(=O)(=O)CCNCc1ccc(-c2ccc3ncnc(Nc4ccc(OCc5cccc(F)c5)c(Cl)c4)c3c2)o1` and report it.
### Response 107 ng/mL

----------
Assay: Lapatinib pharmacokinetics and uptake in rat cerebrospinal fluid (CSF)
Format: in vivo, rats
Conditions: male, Wistar, rat, cerebrospinal fluid, oral, lapatinib 100 mg/kg + elacridar, 8 h; read-out: Clapatinib in CSF, single rat
Reported Property: concentration at 8 h (ng/mL)
Number only, in ng/mL; omit the unit.

### Prompt Find the recorded concentration at 8 h belonging to `CS(=O)(=O)CCNCc1ccc(-c2ccc3ncnc(Nc4ccc(OCc5cccc(F)c5)c(Cl)c4)c3c2)o1` and report it.
### Response 1.03

----------
Test: Lapatinib pharmacokinetics and uptake in rat brain tissue (BT);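 on BT corr (BT homogenate), single rat: brain concentration corrected for residual brain blood by the Fridén method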
Format: in vivo, rats
Details: male, Wistar, rat, brain tissue homogenate, corrected for residual blood, oral, lapatinib 100 mg/kg + elacridar, 4 h; read-out: BT corr (BT homogenate), single rat
Reported Property: concentration at 4 h (ng/mL)
Number only, in ng/mL; omit the unit.

### Prompt Find the recorded concentration at 4 h belonging to CS(=O)(=O)CCNCc1ccc(-c2ccc3ncnc(Nc4ccc(OCc5cccc(F)c5)c(Cl)c4)c3c2)o1 [lapatinib] and report it.
### Response 78.2

----------
Assay: Lapatinib pharmacokinetics and uptake in rat brain tissue (BT);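 on BT corr (BT homogenate corrected), single rat: brain concentration corrected for residual brain blood by the Fridén method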
Assay type: in vivo, rats
Conditions: male, Wistar, rat, brain tissue homogenate, po, 100 mg/kg, lapatinib p.o. 100 mg/kg alone, 0.25 h; read-out: BT corr (BT homogenate corrected), single rat
Reported Property: concentration at 0.25 h (ng/mL)
Number only, in ng/mL; omit the unit.

### Prompt Find the recorded concentration at 0.25 h belonging to CS(=O)(=O)CCNCc1ccc(-c2ccc3ncnc(Nc4ccc(OCc5cccc(F)c5)c(Cl)c4)c3c2)o1 [lapatinib] and report it.
### Response 22.5

----------
Assay: Lapatinib pharmacokinetics and uptake in rat brain tissue (BT);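 on BT corr (BT homogenate), single rat: brain concentration corrected for residual brain blood by the Fridén method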
Assay type: in vivo, rats
Settings: male, Wistar, rat, brain tissue homogenate, oral, lapatinib 100 mg/kg + elacridar, 3 h; read-out: BT corr (BT homogenate), single rat
Description: This study was conducted on rats, which are a promising model to predict P-gp-based drug-drug interactions at the human BBB [15]. The animals were allowed to acclimate for one week before the beginning of the experiments. Adult male Wistar-strain rats (weight 470–525 g) were used in the study. […]
Reported Property: concentration at 3 h (ng/mL)
Number only, in ng/mL; omit the unit.

### Prompt Find the recorded concentration at 3 h belonging to `CS(=O)(=O)CCNCc1ccc(-c2ccc3ncnc(Nc4ccc(OCc5cccc(F)c5)c(Cl)c4)c3c2)o1` and report it.
### Response 170
